Ref: PubChem BioAssay AID651717

In this section we review reported AC40 values for a set of molecules.
- System: mESC Bmi1-luciferase reporter, firefly/renilla ratio, 24 h
- Assay Text: compounds raising Bmi1 reporter signal – mouse embryonic stem cells, luciferase, cherry-pick, esBAF inhibitor project, dose response (AID 651717);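 also: luciferase knocked into Bmi1 locus with EF-1a renilla as cell number control; rising ratio signals esBAF inhibition which derepresses Bmi1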

Ask | Could you share which AC40 value was measured for "CCCc1nc2c3ccccc3ccn2c1Cc1ccc(C)cc1" ?
Reply | 0.443 µM

Ask | For "COc1ccc2nc3sc(C(=O)NCCCN4CCc5ccccc5C4)cc3cc2c1" , what is its reported AC40?
Reply | 11.9 µM

Ask | Param item = "O=C(Nc1ccc(Cl)cc1Cl)c1csc(-c2cccnc2)n1" ; retrieve measured AC40.
Reply | 6.82 µM

Ask | Please report the recorded AC40 for "c1ccc2c(c1)Nc1cc3ccccc3cc1O2" .
Reply | 4.66 µM

Ask | May I ask what AC40 has been recorded for "COc1cc(/C=C2/C(=N)N3N=C(CC(=O)N4CCOCC4)SC3=NC2=O)ccc1OCc1ccc(F)cc1" ?
Reply | 3.4 µM

Ask | What value of AC40 has been reported for the following molecule? "O=C(NCc1ccccn1)Nc1ccc(Br)cc1Cl"
Reply | 2.68 µM

Ask | Looking for the measured AC40 of "C=CCn1c(O)c(C=Nc2ccccc2)sc1=S" , can you help?
Reply | 5.13 µM

Ask | What value of AC40 has been recorded for this entry: "O=C(O)CCc1ccc(-c2ccc(Br)cc2)n1-c1cccc(O)c1"
Reply | 10.8 µM

Ask | Which value of AC40 has been reported for "CCn1c(=N)n(CC(=O)c2cccc(OC)c2)c2ccccc21" in the records?
Reply | 8.58 µM

Ask | Recorded AC40 of COc1cccc(NC(=O)C(=O)NCC2CCCN2S(=O)(=O)c2cccs2)c1 (stereo unspecified) , please.
Reply | 1.25 µM

Ask | # AC40 lookup, item "Cn1c(SCc2c(F)cccc2Cl)nnc1-c1cccs1"
Reply | 11.1 µM
